Here's what we have: IC50 numbers for UniProt Q13822.

Observe how each entry below is paired with its result.
• CC(C)[C@@H](NC(=O)c1cc(OC(F)F)ccc1F)C(=O)N1CCC(C)(Nc2ccc(S(C)(=O)=O)cc2)CC1 = 100 to 500 nM
• CCc1cc(C(=O)N[C@@H](C(=O)N2CCC(C)(Nc3ccc(S(C)(=O)=O)cc3)CC2)C(C)C)c(F)cc1C = 100 to 500 nM
• CC1CCc2cc(F)c(C(=O)N[C@@H](C(=O)N3CCC(C)(Nc4ccc(S(C)(=O)=O)cc4)CC3)C(C)C)cc21 (stereo partly shown) = 100 to 500 nM
• CC(C)[C@@H](NC(=O)c1cc(OC(F)(F)F)ccc1F)C(=O)N1CCC(C)(NC(=O)c2ccc(S(C)(=O)=O)cc2)CC1 = 500 to 5000 nM
• CC(C)[C@@H](NC(=O)c1cc(C(F)(F)F)ccc1F)C(=O)N1CCC(Nc2ccc(S(C)(=O)=O)cc2)CC1 = ≥ 10000 nM

Ask: Bench note: what IC50 did CC(C)[C@@H](NC(=O)c1cc(C(C)(C)C)ccc1F)C(=O)N1CCC(C)(Nc2ccc(S(C)(=O)=O)cc2)CC1 show?
Reply: 500 to 5000 nM

Ask: I am curious: what IC50 value has been reported for CC(C)c1ccc(F)c(C(=O)N[C@@H](C(=O)N2CCC(C)(Nc3ccc(S(C)(=O)=O)cc3)CC2)C(C)C)c1 ?
Reply: 10 to 100 nM

Ask: For COc1ccc(F)c(C(=O)N[C@@H](C(=O)N2CCC(C)(Nc3ccc(S(C)(=O)=O)cc3)CC2)C(C)C)c1 , what is its reported IC50?
Reply: 500 to 5000 nM

Ask: Quick check: IC50 of CC(C)[C@@H](NC(=O)c1cccc(OC(F)(F)F)c1)C(=O)N1CCC(C)(NCc2ccc(S(C)(=O)=O)cc2)CC1 ?
Reply: 100 to 500 nM

Ask: Report IC50 for CC(C)[C@@H](NC(=O)c1cccc(OC(F)(F)F)c1)C(=O)N1CCC(C)(Nc2ccc(C(=O)O)cc2)CC1 please.
Reply: 100 to 500 nM

====

So I've got IC50 readings for Autotaxin (Homo sapiens, UniProt Q13822), take a look.

See these solved cases before continuing.
- CC(C)[C@H](NC(=O)c1cccc(OC(F)(F)F)c1)C(=O)N1CCC(C)(NCc2ccc(S(C)(=O)=O)cc2)CC1: 500 to 5000 nM
- CC(=O)Nc1ccc(N(C)C2(C)CCN(C(=O)[C@H](NC(=O)c3cc(C(F)(F)F)ccc3F)C(C)C)CC2)cc1: 100 to 500 nM

Next:
Ask: I have this molecule here, COc1ccc(CNC2(C)CCN(C(=O)[C@H](NC(=O)c3cccc(OC(F)(F)F)c3)C(C)C)CC2)cc1 , and I need its recorded IC50.
Reply: 500 to 5000 nM
